Values were extracted from patent US20260176262A1.

target: KRAS^G12D/cRAF (Homo sapiens, UniProt P01116, G12D); test: KRAS G12D/cRAF binding test (Alphalisa); details: His-tagged KRAS G12D + GMPPNP, GST-tagged cRAF; class symbols
Sequence (P01116 1-188 isoform P01116-2 G12D): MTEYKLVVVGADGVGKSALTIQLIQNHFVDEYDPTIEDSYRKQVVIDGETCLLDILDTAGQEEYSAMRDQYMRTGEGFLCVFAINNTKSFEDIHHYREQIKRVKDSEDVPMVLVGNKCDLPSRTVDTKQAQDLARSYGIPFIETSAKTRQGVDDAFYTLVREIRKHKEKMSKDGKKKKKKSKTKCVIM
pIC50: −log10 of the molar value.
Measurement Type: pIC50

Worked cases, pIC50 given:
Compound	System Name	pIC50
[2H]C([2H])([2H])OCC12CCC(CN(c3nc(OC[C@@]45CCCN4C[C@H](F)C5)nc4c(F)c(-c5cc(O)cc6cc(Cl)c(F)c(C#C)c56)ncc34)C1)N2 (stereo partly shown)	KRAS^G12D/cRAF (Homo sapiens, UniProt P01116, G12D)	< 6.30
C#Cc1c(F)ccc2cc(O)cc(-c3ncc4c(N5C[C@H]6CC[C@@](COC)(C5)N6)nc(OC[C@@]56CCCN5C[C@H](F)C6)nc4c3F)c12	KRAS^G12D/cRAF (Homo sapiens, UniProt P01116, G12D)	< 6.30
C#Cc1c(F)ccc2cc(O)cc(-c3ncc4c(N5CC6CCC(CS(C)(=O)=O)(C5)N6)nc(OC[C@@]56CCCN5C[C@H](F)C6)nc4c3F)c12 (stereo partly shown)	KRAS^G12D/cRAF (Homo sapiens, UniProt P01116, G12D)	< 6.30

Now consider the entry below.
Enquiry: Look up pIC50 for this compound: C#Cc1c(F)ccc2cc(O)cc(-c3ncc4c(N5CC6CCC(C(C)OC)(C5)N6)nc(OC[C@@]56CCCN5C[C@H](F)C6)nc4c3F)c12 (stereo partly shown)
Return: 6.30 to 7.30
